Collected pIC50 values appear next to each entry.
Molecular target: Porcine heart AMPDA
Test: AMP Site/Enzyme Selectivity: Adenosine Monophosphate Deaminase
Settings: read-out: AMP Deaminase (inh.)
pIC50: −log10 of the molar value.

>  <smiles_representation>
CC(C)Cc1oc(N)nc1-c1ccc(P(=O)(O)O)o1

>  <pIC50>
< 5.00

$$$$
>  <smiles_representation>
CC(C)Cc1sc(N)nc1-c1ccc(P(=O)(O)O)o1

>  <pIC50>
< 5.00

$$$$

* * *

Assay: Estimation of the Oral Bioavailability of Phosphonic Acids and their Prodrugs
Type: in vivo, rat
Settings: Sprague-Dawley, rat, urine; fasted rats, oral 10–50 mg/kg, 24 h urinary recovery of phosphonic acid, oral vs intravenous
recorded_endpoint: bioavailability

>  <molecule>
CCCc1oc(N)nc1-c1ccc(P(=O)(O)O)o1 [Compound 10.2]

>  <recorded_endpoint>
bioavailability

>  <result_value>
22%

$$$$
>  <molecule>
CC(C)Cc1oc(N)nc1-c1ccc(P(=O)(O)O)o1 [Compound 10.1]

>  <recorded_endpoint>
bioavailability

>  <result_value>
21%

$$$$
>  <molecule>
CC(C)Cc1sc(N)nc1-c1ccc(P(=O)(O)O)o1 [Compound 3.1]

>  <recorded_endpoint>
bioavailability

>  <result_value>
4%

$$$$

* * *

Test: Estimation of the Oral Bioavailability of Phosphonic Acids and their Prodrugs
Format: in vivo, rat
Conditions: fasted rats, oral 10–50 mg/kg, 24 h urinary recovery of phosphonic acid, oral vs intravenous
Values of % Oral bioavailability greater than or equal to 20% map to yes; values below map to no.

>  <molecule>
CC(C)Cc1sc(N)nc1-c1ccc(P2(=O)OCCC(c3cc(Cl)cc(Cl)c3)O2)o1 (stereo not shown) [Compound 19.48]

>  <assigned_label>
no

$$$$
>  <molecule>
COC(=O)C(C)NP(=O)(Oc1ccccc1)c1ccc(-c2nc(N)sc2CC(C)C)o1 (stereo not shown) [Compound 31.6]

>  <assigned_label>
no

$$$$
>  <molecule>
Cc1nc(-c2ccc(P(=O)(OCOC(=O)C(C)(C)C)OCOC(=O)C(C)(C)C)o2)c(CC(C)C)s1 [Compound 20.3]

>  <assigned_label>
no

$$$$
>  <molecule>
Nc1nc(-c2ccc(P(=O)(O)O)o2)c(C2CC2)s1 [Compound 3.27]

>  <assigned_label>
yes

$$$$
>  <molecule>
CCOC(=O)OCOP(=O)(OCOC(=O)OCC)c1ccc(-c2nc(N)sc2CC(C)C)o1 [Compound 20.9]

>  <assigned_label>
no

$$$$
>  <molecule>
Cc1nc(-c2ccc(P(=O)(OCOC(=O)C(C)(C)C)OCOC(=O)C(C)(C)C)o2)cs1 [Compound 20.1]

>  <assigned_label>
yes

$$$$
>  <molecule>
CC(C)Cc1sc(N)nc1-c1ccc(P(=O)(OCOC(=O)C(C)(C)C)OCOC(=O)C(C)(C)C)o1 [Compound 20.4]

>  <assigned_label>
no

$$$$
>  <molecule>
Cc1nc(-c2ccc(P3(=O)OCCC(c4ccncc4)O3)o2)c(CC(C)C)s1 (stereo not shown) [Compound 19.17]

>  <assigned_label>
no

$$$$
>  <molecule>
CC(C)Cc1sc(N)nc1-c1ccc(P2(=O)OCCC(c3ccc(F)c(Br)c3)O2)o1 (stereo not shown) [Compound 19.42]

>  <assigned_label>
no

$$$$
>  <molecule>
CCOC(=O)CNP(=O)(Oc1ccccc1)c1ccc(-c2nc(N)sc2CC(C)C)o1 (stereo not shown) [Compound 31.8]

>  <assigned_label>
no

$$$$
